Provenance of the data: patent US20250326765A1

Below, each entry is listed alongside its reported Emax.
test: Inhibition of LPS-induced TNF-α release from human peripheral blood mononuclear cells in vitro; format: cell-based; conditions: PBMC, hPBMC, 100 ng/mL LPS, 4 h, read-out: Max inhibition (%)
Give the value in % but do not write % after it.

[O-][S@+]1CCc2nc(N3CC=C(c4ccc5c(c4)COB5O)CC3)nc(NC3(CO)CCC3)c21; 79.3
Cc1nnc(C2=CCN(c3nc4c(c(NC5(CO)CCC5)n3)[S@+]([O-])CC4)CC2)o1; 67.2
[O-][S@+]1CCc2nc(N3C[C@H]4CN(c5ncc6c(n5)CC6)C[C@H]4C3)nc(NC3(CO)CCC3)c21; 82

Summary for this compound, [O-][S@+]1CCc2nc(N3CC=C(c4ncc5c(n4)COB5O)CC3)nc(NC3(CO)CCC3)c21 : Emax is 61.5

Summary for this compound, N#CC1(c2cnc(C3=CCN(c4nc5c(c(NC6(CO)CCC6)n4)[S@+]([O-])CC5)CC3)nc2)CC1 : Emax is 70.8

Summary for this compound, CC#Cc1cnc(C2=CCN(c3nc4c(c(NC5(CO)CCC5)n3)[S@+]([O-])CC4)CC2)nc1 : Emax is 73.8

Summary for this compound, C#Cc1ccc(C2=CCN(c3nc4c(c(NC5(CO)CCC5)n3)[S@+]([O-])CC4)CC2)nc1 : Emax is 70.5
